assay: Caco-2 permeability; assay type: in vitro ADME, human; conditions: human, Caco-2, Efflux ratio, Caco-2, 20 μM, Papp(B-A)/Papp(A-B)
property_name: efflux ratio at 120 min, 20 μM

Ask: I have this compound here, COC(=O)c1ccc2c(c1)NC(=O)/C2=C(\Nc1ccc(N(C)C(=O)CN2CCN(C)CC2)cc1)c1ccccc1 [Nintedanib, nintedanib] , and I need its recorded efflux ratio at 120 min, 20 μM.
Reply: ~78

====

molecular target: CYP2C19 (Homo sapiens, UniProt P33261); experiment: cytochrome P450 inhibition, CYP2C19; type: in vitro ADME; conditions: P450 inhibition IC50, 2C19, probe substrate S-mephenytoin
Sequence (P33261 whole entry): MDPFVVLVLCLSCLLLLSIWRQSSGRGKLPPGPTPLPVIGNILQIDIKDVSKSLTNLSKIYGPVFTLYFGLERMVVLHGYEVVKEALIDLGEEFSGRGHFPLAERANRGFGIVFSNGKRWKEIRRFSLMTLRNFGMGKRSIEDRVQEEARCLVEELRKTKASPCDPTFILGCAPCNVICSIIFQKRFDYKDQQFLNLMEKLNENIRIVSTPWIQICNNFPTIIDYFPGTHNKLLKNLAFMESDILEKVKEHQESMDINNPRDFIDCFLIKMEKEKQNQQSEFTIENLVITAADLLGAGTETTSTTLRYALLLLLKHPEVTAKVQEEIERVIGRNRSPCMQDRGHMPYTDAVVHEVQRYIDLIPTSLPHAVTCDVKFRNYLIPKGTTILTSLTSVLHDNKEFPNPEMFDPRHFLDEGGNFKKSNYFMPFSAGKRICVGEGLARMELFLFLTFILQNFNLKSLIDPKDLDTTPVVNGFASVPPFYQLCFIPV
property_name: IC50

Ask: Could you share which IC50 value was measured for `COC(=O)c1ccc2c(c1)NC(=O)/C2=C(\Nc1ccc(N(C)C(=O)CN2CCN(C)CC2)cc1)c1ccccc1` ?
Reply: ≥ 33 µM

====

target: CYP2C9 (Homo sapiens); assay: cytochrome P450 inhibition, CYP2C9; type: in vitro ADME; conditions: P450 inhibition IC50, 2C9, probe substrate diclofenac
Sequence (P11712 whole entry): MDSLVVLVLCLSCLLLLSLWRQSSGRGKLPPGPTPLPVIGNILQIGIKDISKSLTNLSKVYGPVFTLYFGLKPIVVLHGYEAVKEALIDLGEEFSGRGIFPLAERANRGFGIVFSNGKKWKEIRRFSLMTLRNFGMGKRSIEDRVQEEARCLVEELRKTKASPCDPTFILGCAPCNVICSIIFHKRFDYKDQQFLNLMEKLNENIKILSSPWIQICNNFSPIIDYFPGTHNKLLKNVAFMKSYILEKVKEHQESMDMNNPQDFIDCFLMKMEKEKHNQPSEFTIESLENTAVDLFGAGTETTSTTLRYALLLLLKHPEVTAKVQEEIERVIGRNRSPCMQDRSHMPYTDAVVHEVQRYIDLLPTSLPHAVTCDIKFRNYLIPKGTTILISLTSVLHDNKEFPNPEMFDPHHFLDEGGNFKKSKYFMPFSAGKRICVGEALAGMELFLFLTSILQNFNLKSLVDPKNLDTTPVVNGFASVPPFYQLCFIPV
property_name: IC50

Ask: Quick one: IC50 of COC(=O)c1ccc2c(c1)NC(=O)/C2=C(\Nc1ccc(N(C)C(=O)CN2CCN(C)CC2)cc1)c1ccccc1 [Nintedanib, nintedanib] ?
Reply: ≥ 33 µM

====

test: Caco-2 permeability; assay type: in vitro ADME, human; conditions: human, Caco-2
property_name: Papp A→B at 120 min, 20 μM (nm/s)
Output spec: scalar in nm/s, unitless text.

Ask: Could you tell me which Papp A→B at 120 min, 20 μM is on file for COC(=O)c1ccc2c(c1)NC(=O)/C2=C(\Nc1ccc(N(C)C(=O)CN2CCN(C)CC2)cc1)c1ccccc1 [Nintedanib, nintedanib] ?
Reply: 2.9

====

experiment: Caco-2 permeability; type: in vitro ADME, human; settings: human, Caco-2
property_name: Papp B→A at 120 min, 20 μM (×10⁻⁶ cm/s)
Answer format: numeric, ×10⁻⁶ cm/s implied, no suffix.

Ask: Dear colleague, I am looking for the recorded Papp B→A at 120 min, 20 μM of the following compound: `COC(=O)c1ccc2c(c1)NC(=O)/C2=C(\Nc1ccc(N(C)C(=O)CN2CCN(C)CC2)cc1)c1ccccc1`
Reply: 22.6

====

target: UniProtKB P10635; test: cytochrome P450 inhibition, CYP2D6; assay type: in vitro ADME
Sequence (P10635 whole entry): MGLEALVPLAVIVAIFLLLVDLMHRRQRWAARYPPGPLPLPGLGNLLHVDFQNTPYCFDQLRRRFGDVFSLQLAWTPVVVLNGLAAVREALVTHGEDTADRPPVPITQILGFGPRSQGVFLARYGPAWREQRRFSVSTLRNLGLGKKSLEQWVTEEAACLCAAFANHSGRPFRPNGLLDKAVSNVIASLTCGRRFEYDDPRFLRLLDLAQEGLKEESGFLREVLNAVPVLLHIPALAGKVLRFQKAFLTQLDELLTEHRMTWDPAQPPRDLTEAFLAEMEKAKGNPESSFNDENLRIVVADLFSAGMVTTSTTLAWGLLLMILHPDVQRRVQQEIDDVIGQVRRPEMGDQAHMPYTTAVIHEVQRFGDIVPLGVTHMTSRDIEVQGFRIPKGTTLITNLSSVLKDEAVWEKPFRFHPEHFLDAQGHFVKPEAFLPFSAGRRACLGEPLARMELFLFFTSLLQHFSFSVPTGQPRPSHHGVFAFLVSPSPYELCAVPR
property_name: IC50 (µM)
Number in µM, nothing else.

Ask: I'd like to know its IC50. The compound in question is `COC(=O)c1ccc2c(c1)NC(=O)/C2=C(\Nc1ccc(N(C)C(=O)CN2CCN(C)CC2)cc1)c1ccccc1`
Reply: 39.7

====

assay: Caco-2 permeability; type: in vitro ADME, human; details: human, Caco-2
property_name: Papp A→B at 120 min, 2 μM (×10⁻⁶ cm/s)
Give the number; ×10⁻⁶ cm/s is assumed, so skip it.

Ask: What value of Papp A→B at 120 min, 2 μM has been reported for the following compound? `COC(=O)c1ccc2c(c1)NC(=O)/C2=C(\Nc1ccc(N(C)C(=O)CN2CCN(C)CC2)cc1)c1ccccc1`
Reply: 0.05

====

Molecular target: CYP1A2 (Homo sapiens)
Sequence (P05177 1-516): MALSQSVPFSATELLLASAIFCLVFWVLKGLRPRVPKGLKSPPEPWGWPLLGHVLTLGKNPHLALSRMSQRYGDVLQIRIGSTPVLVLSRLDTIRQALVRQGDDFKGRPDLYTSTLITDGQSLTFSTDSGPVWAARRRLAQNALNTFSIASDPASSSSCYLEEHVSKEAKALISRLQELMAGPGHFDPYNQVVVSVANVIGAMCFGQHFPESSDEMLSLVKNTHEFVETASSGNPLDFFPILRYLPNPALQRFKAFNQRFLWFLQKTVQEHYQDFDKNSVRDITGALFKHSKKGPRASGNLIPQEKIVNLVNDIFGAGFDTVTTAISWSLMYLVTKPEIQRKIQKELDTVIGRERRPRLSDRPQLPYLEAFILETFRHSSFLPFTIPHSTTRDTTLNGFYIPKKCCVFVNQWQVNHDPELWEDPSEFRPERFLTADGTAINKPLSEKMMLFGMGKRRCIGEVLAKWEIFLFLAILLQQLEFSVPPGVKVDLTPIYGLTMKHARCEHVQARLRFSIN
Experiment: cytochrome P450 inhibition, CYP1A2
Format: in vitro ADME
property_name: pIC50
# pIC50 is unitless: minus log10 of the molar concentration; print number only

Ask: Please look up its pIC50: `COC(=O)c1ccc2c(c1)NC(=O)/C2=C(\Nc1ccc(N(C)C(=O)CN2CCN(C)CC2)cc1)c1ccccc1`
Reply: 4.76
